B1: Subtilisin-chymotrypsin inhibitor-2A, P01053 (parent)
chain: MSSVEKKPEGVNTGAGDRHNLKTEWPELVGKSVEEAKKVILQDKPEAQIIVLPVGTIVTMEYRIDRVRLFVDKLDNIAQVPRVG

variants of: B1; conditions: Hordeum vulgare; pH 6.3; 25 °C; GdnHCl; Fluorescence; MES 450 mM; reversible: yes; structure 2CI2; whole UniProt chain shown
Measured denaturant midpoint (higher = more stable), listed per entry.
Give a bare numeral; the unit M is implied.

# Seq, Result Value
rows = [
    ("MSSVEKKPEGVNTGAGDRHNLKTEWPELVGKSVEEAKKVILQDKPEAQIIVLPVGTIVTMAYRIDRVRLFVDKLDNIAQVPRVG [E61A]", 3.64),
    ("MSSVEKKPEGVNTGAGDRHNLKTEWPELVGKSVEEAKKVILQDKPEAQIIVLPVGTIVAMAYRIDRVRLFVDKLDNIAQVPRVG [T59A E61A]", 3.54),
    ("MSSVEKKPEGVNTGAGDRHNLKTEWPELVGKSVEEAKKVILQDKPEAQIIVLPVGTIVDMEYRIDRVRLFVDKLDNIAQVPRVG [T59D]", 4.01),
]

# context switch: different variant, same denaturant midpoint (higher = more stable)
q: I have this variant here, MSSVEKKPEGVNTGAGDRHNLKTEWPELVGKSVEEAKKVILQDKPEAQIIVLPVGTIVAMEYRIDRVRLFVDKLDNIAQVPRVG [T59A] , and I need its recorded denaturant midpoint (higher = more stable).
a: 3.63
